Molecular target: IV-cPLA(2) (Homo sapiens, UniProt P47712)
Sequence (P47712 1-749): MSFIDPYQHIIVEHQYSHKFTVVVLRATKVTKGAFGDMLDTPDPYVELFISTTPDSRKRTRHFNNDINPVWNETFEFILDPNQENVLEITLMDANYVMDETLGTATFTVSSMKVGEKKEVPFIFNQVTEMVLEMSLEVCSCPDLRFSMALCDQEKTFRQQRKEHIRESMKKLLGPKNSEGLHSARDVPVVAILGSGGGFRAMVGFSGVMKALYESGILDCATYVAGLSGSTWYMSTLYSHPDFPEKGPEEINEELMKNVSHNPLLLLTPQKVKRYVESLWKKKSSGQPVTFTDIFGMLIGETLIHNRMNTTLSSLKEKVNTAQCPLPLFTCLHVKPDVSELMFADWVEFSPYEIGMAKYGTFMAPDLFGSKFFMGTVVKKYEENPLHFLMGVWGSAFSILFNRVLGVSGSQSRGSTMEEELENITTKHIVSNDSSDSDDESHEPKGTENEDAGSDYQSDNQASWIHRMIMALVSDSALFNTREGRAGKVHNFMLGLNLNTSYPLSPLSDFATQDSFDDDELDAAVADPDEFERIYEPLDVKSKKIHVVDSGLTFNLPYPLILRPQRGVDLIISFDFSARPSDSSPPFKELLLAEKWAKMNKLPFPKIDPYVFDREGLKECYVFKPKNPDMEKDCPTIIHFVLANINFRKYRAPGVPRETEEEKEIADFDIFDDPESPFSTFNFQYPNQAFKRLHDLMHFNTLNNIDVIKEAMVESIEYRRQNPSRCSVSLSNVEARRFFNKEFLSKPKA
Assay: PLA(2) activity, hydrolysis of bis-BODIPY FL C11-PC in activated U937 cells
Format: cell-based
Conditions: 0.1 μM
The label is YES for Inhibition (%) below 90% and NO for Inhibition (%) equal to or exceeding 90%.

* CN=C1OC(c2ccc(C)cc2)C(C)N1C(=O)NC1CCCCO1 (stereo not shown) | YES
* CC(=O)N=C1SC(c2ccccc2)C(C)N1CC(OC(C)=O)c1ccccc1 (stereo not shown) | NO
* CC1C(c2ccc3c(c2)CCCC3)OC(=O)N1C(=O)NC1CCCCO1 (stereo not shown) | YES
* O=C(NC1CCCCO1)N1CC(c2ccc3ccccc3c2)OC1=O (stereo not shown) | YES
* CCONC(=O)N1C(=O)OC(c2ccc(Oc3ccccc3)cc2)C1C (stereo not shown) | YES
* CN=C1OC(c2ccc(C)cc2)C(C)N1C(=O)Nc1ccc(Cl)cc1 (stereo not shown) | NO
* CCOC(=O)CN=C1NC(C)C(c2ccc(C)cc2)S1 (stereo not shown) | YES
* CC1C(c2ccccc2)OC(=O)N1C(=O)NC1CCCCO1 (stereo not shown) | NO
* Cc1ccc(C2OC(=O)N(C(=O)NC3CCOCC3)C2C)cc1 (stereo not shown) | NO
* CC1C(c2ccccc2)OC(=O)N1C(=S)NC1CCCCC1 (stereo not shown) | NO
* Cc1ccc(C2OC(=O)N(C(=O)NS(=O)(=O)c3ccccc3C)C2C)cc1 (stereo not shown) | NO
* CC1C(c2ccc(-c3ccccc3)cc2)OC(=O)N1C(=O)Nc1ccc(Cl)cc1 (stereo not shown) [Compound 2-186] | YES
* CC1C(c2ccc(Cl)cc2)SC(=O)N1C(=O)NS(=O)(=O)c1ccccc1Cl (stereo not shown) | YES
* Cc1ccc(C2OC(=NC(=O)c3c(C)cccc3Cl)NC2C)cc1 (stereo not shown) | YES
* CC1C(c2ccc3ccccc3c2)OC(=O)N1C(=O)NC1CCCCO1 (stereo not shown) | YES
* CC1C(c2ccc(-c3ccccc3)cc2)OC(=O)N1C(=O)Nc1ccc(Cl)cc1 (stereo not shown) [Compound 2-187] | YES

Data provenance: patent US6762200B2
